# target.system: AtPPO1 S305L Y361C L362F Y426M L479M (SEQ ID NO.134) (Arabidopsis thaliana, UniProt P55826, L479M/S305L/Y361C/Y362F/Y426M)
# experiment: fluorescent Protoporphyrinogen Oxidase assay, crude extract
# Type: biochemical
# assay.context: read-out: percentage inhibition
Entries and their measured inhibition at 100 ppm follow.
Numeric answer only, unit % assumed.

# compound, result.number
rows = [
    ("C#CCN1C(=O)C(F)(F)Oc2cc(F)c(-n3c(=O)n(C)c(=S)n(C)c3=O)cc21 [Herbicide B, trifludimoxazin]", 100),
    ("CCOC(=O)[C@]1(C)CC(c2cc(-n3c(=O)n(C)c(=S)n(C)c3=O)c(F)cc2Cl)=NO1 [Herbicide D]", 100),
    ("CC(C)N(C)S(=O)(=O)NC(=O)c1cc(-n2c(=O)cc(C(F)(F)F)n(C)c2=O)c(F)cc1Cl [Herbicide E, saflufenacil]", 99),
    ("CCOC(=O)COc1ncccc1Oc1cc(-n2c(=O)cc(C(F)(F)F)n(C)c2=O)c(F)cc1Cl [Herbicide A, epyrifenacil]", 92),
]

Let's switch to this compound now.
CCOC(=O)C1(C)CC(c2cc(-n3c(=O)cc(C(F)(F)F)n(C)c3=O)c(F)cc2Cl)=NO1 (centres unmarked) [Herbicide C] has a reported inhibition at 100 ppm of 100

* * *

# target.system: AtPPO1 S305L G404A Y426V T431R L479N (SEQ ID NO.127) (Arabidopsis thaliana, UniProt P55826, G404A/L479N/S305L/T431R/Y426V)
# Construct: made in house; host or cells: E. coli BL21 (DE3) hemG, crude extract
# Sequence (P55826 35-537 S305L/G404A/Y426V/T431R/L479N): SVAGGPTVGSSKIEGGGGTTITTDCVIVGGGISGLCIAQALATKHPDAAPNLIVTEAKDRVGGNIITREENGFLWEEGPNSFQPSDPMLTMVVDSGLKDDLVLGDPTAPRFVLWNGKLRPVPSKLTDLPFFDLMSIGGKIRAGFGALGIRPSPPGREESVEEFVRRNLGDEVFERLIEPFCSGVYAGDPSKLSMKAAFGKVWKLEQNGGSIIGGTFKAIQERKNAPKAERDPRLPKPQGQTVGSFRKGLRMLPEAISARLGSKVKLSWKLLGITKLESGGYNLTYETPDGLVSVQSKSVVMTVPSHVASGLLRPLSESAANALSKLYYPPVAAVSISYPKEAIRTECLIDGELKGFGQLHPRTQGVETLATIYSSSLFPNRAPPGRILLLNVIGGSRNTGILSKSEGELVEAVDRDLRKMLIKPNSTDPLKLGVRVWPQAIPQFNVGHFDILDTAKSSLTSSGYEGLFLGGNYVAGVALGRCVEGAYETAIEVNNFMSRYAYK
# experiment: fluorescent Protoporphyrinogen Oxidase assay, crude extract
# Format: biochemical
# assay.context: read-out: percentage inhibition
Entries and their measured inhibition at 10 ppm follow.
Quote the value and follow it with the unit of measurement.

Past entries and their recorded results:
# compound, inhibition at 10 ppm
data = [
    ("CCOC(=O)COc1ncccc1Oc1cc(-n2c(=O)cc(C(F)(F)F)n(C)c2=O)c(F)cc1Cl [Herbicide A, epyrifenacil]", "69%"),
    ("CCOC(=O)[C@]1(C)CC(c2cc(-n3c(=O)n(C)c(=S)n(C)c3=O)c(F)cc2Cl)=NO1 [Herbicide D]", "75%"),
    ("CCOC(=O)C1(C)CC(c2cc(-n3c(=O)cc(C(F)(F)F)n(C)c3=O)c(F)cc2Cl)=NO1 (centres unmarked) [Herbicide C]", "83%"),
    ("C#CCN1C(=O)C(F)(F)Oc2cc(F)c(-n3c(=O)n(C)c(=S)n(C)c3=O)cc21 [Herbicide B, trifludimoxazin]", "100%"),
]

CC(C)N(C)S(=O)(=O)NC(=O)c1cc(-n2c(=O)cc(C(F)(F)F)n(C)c2=O)c(F)cc1Cl [Herbicide E, saflufenacil] has a reported inhibition at 10 ppm of 75%
